Every entry's value here was drawn from paper PMC7778606.

Molecular target: IGF-1R
Test: KINOMEscan competition binding assay
Settings: IGF-1R, 11-point dose response, duplicate
Property Label: pKd
Answers are plain numbers, as −log10 of the molar value.

Summary for this compound, Nc1ncnc2c1c(-c1ccc(Cl)cc1)nn2CCn1cc(COc2ccc(Nc3nccc(Nc4cnc5ccccc5c4)n3)cc2)nn1 [LL6] : pKd is 5.30

* * *

Assay: Pharmacokinetic study in rats
Format: in vivo, SD rats
Conditions: SD, rat, plasma; rats, intravenous, 1 mg/kg
Property Label: clearance (mL/min/kg)
Numbers only, in mL/min/kg.

Summary for this compound, Nc1ncnc2c1c(-c1ccc(Cl)cc1)nn2CCn1cc(COc2ccc(Nc3nccc(Nc4cnc5ccccc5c4)n3)cc2)nn1 [LL6] : clearance is 19.3

* * *

System: A549 cells
Assay: MTT assay, viability of A549 cells
Type: cell-based
Settings: Homo sapiens, 72 h; A549, MTT assay, three days; read-out: IC50 against the viability (Table S4)
Property Label: pIC50
Give bare numbers, as −log10 of the molar value.

Summary for this compound, Nc1ncnc2c1c(-c1ccc(Cl)cc1)nn2CCn1cc(COc2ccc(Nc3nccc(Nc4cnc5ccccc5c4)n3)cc2)nn1 : pIC50 is 5.18

* * *

Test: Pharmacokinetic study in rats
Assay type: in vivo, SD rats
Details: SD, rat, plasma; rats, intravenous, 1 mg/kg
Property Label: AUC(0-t)
Answer format: value, then unit.

Summary for this compound, Nc1ncnc2c1c(-c1ccc(Cl)cc1)nn2CCn1cc(COc2ccc(Nc3nccc(Nc4cnc5ccccc5c4)n3)cc2)nn1 : AUC(0-t) is 850 ng·h/mL

* * *

Test system: PC9 cells
Assay: MTT assay, viability of PC9 cells
Assay type: cell-based
Details: Homo sapiens, PC-9, 48 h, two days, 5% FBS, read-out: IC50 against the viability
Property Label: IC50

Summary for this molecule, Nc1ncnc2c1c(-c1ccc(Cl)cc1)nn2CCn1cc(COc2ccc(Nc3nccc(Nc4cnc5ccccc5c4)n3)cc2)nn1 : IC50 is > 10 µM

* * *

Test system: H1299 cells
Test: MTT assay, viability of H1299 cells
Type: cell-based
Details: Homo sapiens, NCI-H1299, 72 h, three days, read-out: IC50 against the viability
Property Label: pIC50
Answers are plain numbers, as −log10 of the molar value.

Known pIC50 results, listed for orientation:
Chemical Smiles: Nc1nc(Nc2ccc3c(c2)CC[C@@H](N2CCCC2)CC3)nn1-c1cc2c(nn1)-c1ccccc1CCC2
pIC50: 6.28
--
Chemical Smiles: Nc1ncnc2c1c(-c1ccc(Cl)cc1)nn2CCn1cc(COc2ccc(Nc3nccc(Nc4cnc5ccccc5c4)n3)cc2)nn1
pIC50: 5.53
--
Chemical Smiles: Cc1nc(Nc2ncc(C(=O)Nc3c(C)cccc3Cl)s2)cc(N2CCN(CCO)CC2)n1
pIC50: 7.70

Now take the following compound into account.
Summary for this compound, C[C@]1(O)C[C@@H](c2nc(-c3ccc4ccc(-c5ccccc5)nc4c3)c3c(N)nccn32)C1 : pIC50 is 4.89

* * *

System: H1944 cells
Assay: MTT assay, viability of H1944 cells
Type: cell-based
Conditions: Homo sapiens, NCI-H1944, 72 h, three days, read-out: IC50 against the viability
Property Label: IC50 (nM)
Numbers only, in nM.

Summary for this molecule, Nc1ncnc2c1c(-c1ccc(Cl)cc1)nn2CCn1cc(COc2ccc(Nc3nccc(Nc4cnc5ccccc5c4)n3)cc2)nn1 : IC50 is 1020

* * *

Test system: H460 cells
Experiment: MTT assay, viability of H460 cells
Format: cell-based
Conditions: Homo sapiens, NCI-H460, 72 h, three days, read-out: IC50 against the viability
Property Label: IC50 (nM)
Give bare numbers, in nM.

Could you report IC50 for every entry in the following list?
1. Cc1nc(Nc2ncc(C(=O)Nc3c(C)cccc3Cl)s2)cc(N2CCN(CCO)CC2)n1
2. Nc1ncnc2c1c(-c1ccc(Cl)cc1)nn2CCn1cc(COc2ccc(Nc3nccc(Nc4cnc5ccccc5c4)n3)cc2)nn1
3. Nc1nc(Nc2ccc3c(c2)CC[C@@H](N2CCCC2)CC3)nn1-c1cc2c(nn1)-c1ccccc1CCC2
4. C[C@]1(O)C[C@@H](c2nc(-c3ccc4ccc(-c5ccccc5)nc4c3)c3c(N)nccn32)C1

// result
540
3430
180
3780

* * *

Experiment: Pharmacokinetic study in rats
Format: in vivo, SD rats
Conditions: SD, rat, plasma; rats, intravenous, 1 mg/kg
Property Label: MRT (min)
Answers are plain numbers, in min.

Summary for this molecule, Nc1ncnc2c1c(-c1ccc(Cl)cc1)nn2CCn1cc(COc2ccc(Nc3nccc(Nc4cnc5ccccc5c4)n3)cc2)nn1 : MRT is 20.3

* * *

Assay: MTT assay, viability of Wi38 human lung fibroblasts
Assay type: cell-based
Settings: human, Wi38 lung fibroblasts; Wi38, 10 μM; read-out: percentage of cell viability
Property Label: viability at 3 days, 10 µM

Summary for this compound, Nc1ncnc2c1c(-c1ccc(Cl)cc1)nn2CCn1cc(COc2ccc(Nc3nccc(Nc4cnc5ccccc5c4)n3)cc2)nn1 : viability at 3 days, 10 µM is > 60%
